Source listed as PubChem BioAssay.

# composite z-score listing for each entry below
test: small-molecule microarray binders of probe aShh, primary screen, biochemical, biotinylated probe, 635/667 nm fluorescence (AID 1114); conditions: higher = more signal;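 further: probe is biotin-labelled aShh protein from a stem cell growth factor screen; measures binding of labelled protein to compounds printed on the slide; score merges feature fluorescence at 667 nm with signal-to-noise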

[
  {
    "COMPOUND": "C=C[C@@H](C)[C@H](O)c1ccc(OCCO)cc1",
    "composite z-score": -0.289
  },
  {
    "COMPOUND": "Cc1cccc([C@H]2C[C@H]3C(I)=C[C@@H]2C(=O)[C@]32CO2)c1",
    "composite z-score": -0.345
  },
  {
    "COMPOUND": "COc1cc(CO)cc(I)c1O[C@H]1C=C(C(=O)NCCO)C[C@@H](NCC2CCCCC2)[C@@H]1O",
    "composite z-score": 0.0639
  },
  {
    "COMPOUND": "CCCCC(=C=CC[C@H](O)c1ccc(OCCO)cc1)C[C@H](O)COCc1ccccc1",
    "composite z-score": 0.14
  },
  {
    "COMPOUND": "C=CCC(OC(C)=O)[C@@H]1[C@@H](N(Cc2cccc3ccccc23)C(=O)c2cccc3ccccc23)c2cc(OCCCO)ccc2N1C(=O)c1ccc2ccccc2c1 (stereo not given in full)",
    "composite z-score": 0.0494
  }
]
